Where these numbers come from: patent US20220033460A1

# Target Or System: DRB1*15:01
# Condition Details: modification not given
Experimental Readout: pIC50
# log scale: pIC50 equals minus log10 of the concentration in mol/L

Check the records and state pIC50 for TFEYVSQPFLMDLEG [… (position 167)] 5.12
